# System: MCF7 breast
# experiment description: NCI-60 one-dose screen, 48 h (100 = growth as untreated, 0 = no growth, -100 = all killed)
# condition parameters: 10 µM unless noted
About 83,000 compounds went through this panel and 20% of them were active in at least one assay; those are over-represented in the sample as a whole.
Field: label. Allowed values: Condition met (growth < 30%) or Condition not met (growth >= 30%).

Exam item: Given the entry `N#Cc1ccc(N2Cc3cc(Cl)ccc3OC3=C2C(=O)N(Cc2ccccc2)C3=O)cc1` , would its reported growth be below 30%?
Marked response: Condition met

Exam item: Given the entry `NC(=O)c1ccc2nc3c(n2c1)C(=O)C(=O)c1ccccc1-3` , would its reported growth be below 30%?
Marked response: Condition met

Exam item: Given the entry `Nc1c(C(=O)Nc2cccc3ccccc23)sc2nc3c(cc12)CCCCCC3` , would its reported growth be below 30%?
Marked response: Condition met

Exam item: Given the entry COc1cc(C2=NNC(c3ccc(N(C)C)cc3)C2)cc(OC)c1OC (stereo not given) , would its reported growth be below 30%?
Marked response: Condition met

Exam item: Given the entry `C=C1C(=O)O[C@H]2[C@H]1CC/C(COC(=O)c1cn(C)c3ccccc13)=C\CC[C@@]1(C)O[C@@H]21` , would its reported growth be below 30%?
Marked response: Condition met

Exam item: Given the entry `CCOC(=O)/C(=C/c1c(-c2ccccc2)[nH]c2ccccc12)C(=O)c1ccc(Cl)cc1` , would its reported growth be below 30%?
Marked response: Condition met

Exam item: Given the entry O=C1NN(c2ccccc2)C(c2ccc(Cl)cc2)N2CCC[C@H]12 (stereo not given in full) , would its reported growth be below 30%?
Marked response: Condition not met

Exam item: Given the entry C1=CC2=CC=C3C=CC=C4C(c5nc6c7ccccc7c7ccccc7c6[nH]5)=CC(=C1)C2C34 (stereo not given) , would its reported growth be below 30%?
Marked response: Condition not met

Exam item: Given the entry `COc1ccc(-c2[nH]c3ccc(OC)cc3c2C=C(C#N)C#N)cc1` , would its reported growth be below 30%?
Marked response: Condition met

Exam item: Given the entry `COc1cc2nc3c(=O)n(CCN(C)C)cnn3c(=O)c2cc1OC` , would its reported growth be below 30%?
Marked response: Condition not met
